Each recorded value in this set is attributed to the NIST ThermoML archive (doi:10.1016/j.fluid.2014.11.020).

assay: activity coefficient (dimensionless); of the first substance listed, at infinite dilution; xn = mol fraction of the nth substance listed; conditions: 323.15 K; Liquid; Chromatography; x1 = 0
Could you label it Satisfied if measured activity coefficient is 9 or higher, and Not satisfied otherwise?

| COMPOUND | ASSIGNED CLASS |
| --- | --- |
| CCCCCCCCC [nonane] + CCCCCCCCn1cc[n+](COCCC)c1C.N#C[N-]C#N | Satisfied |
| CC(C)OC(C)C [diisopropyl ether] + CCCCCCCCn1cc[n+](COCCCOC[n+]2ccn(CCCCCCCC)c2C)c1C.N#C[N-]C#N.N#C[N-]C#N | Not satisfied |
| C#CCCCCC [1-heptyne] + CCCOC[n+]1ccn(Cc2ccccc2)c1.O=S(=O)([N-]S(=O)(=O)C(F)(F)F)C(F)(F)F | Not satisfied |
| c1ccncc1 [pyridine] + CCCCCCCCn1cc[n+](COCCC)c1C.N#C[N-]C#N | Not satisfied |
| C=CCCCC [hex-1-ene] + CCCCCCCCn1cc[n+](COCCC)c1C.O=S(=O)([N-]S(=O)(=O)C(F)(F)F)C(F)(F)F | Not satisfied |
| C=CCCCC [hex-1-ene] + CN(C)c1cc[n+](COCCCOC[n+]2ccc(N(C)C)cc2)cc1.O=S(=O)([N-]S(=O)(=O)C(F)(F)F)C(F)(F)F.O=S(=O)([N-]S(=O)(=O)C(F)(F)F)C(F)(F)F | Satisfied |
| CCCCCCCCCCC [undecane] + CCCCCCCCn1cc[n+](COCCC)c1C.O=S(=O)([N-]S(=O)(=O)C(F)(F)F)C(F)(F)F | Satisfied |
| CCO [ethanol] + Cn1cc[n+](COCCCOC[n+]2ccn(C)c2)c1.N#C[N-]C#N.N#C[N-]C#N | Not satisfied |
| CCCCCCCCC [nonane] + CCCCCCCCn1cc[n+](COCCCOC[n+]2ccn(CCCCCCCC)c2C)c1C.O=S(=O)([N-]S(=O)(=O)C(F)(F)F)C(F)(F)F.O=S(=O)([N-]S(=O)(=O)C(F)(F)F)C(F)(F)F | Not satisfied |
| Cc1ccccc1 [toluene] + CCCOC[n+]1ccn(C)c1.F[B-](F)(F)F | Not satisfied |
| ClC(Cl)Cl [trichloromethane] + CN(C)c1cc[n+](COCCCOC[n+]2ccc(N(C)C)cc2)cc1.O=S(=O)([N-]S(=O)(=O)C(F)(F)F)C(F)(F)F.O=S(=O)([N-]S(=O)(=O)C(F)(F)F)C(F)(F)F | Not satisfied |
| CC1CCCCC1 [methylcyclohexane] + CN(C)c1cc[n+](COCCCOC[n+]2ccc(N(C)C)cc2)cc1.O=S(=O)([N-]S(=O)(=O)C(F)(F)F)C(F)(F)F.O=S(=O)([N-]S(=O)(=O)C(F)(F)F)C(F)(F)F | Satisfied |

---

experiment: activity coefficient (dimensionless); of the first substance listed, at infinite dilution; xn = mol fraction of the nth substance listed; conditions: 343.15 K; Liquid; Chromatography; x1 = 0
Could you label it Met if measured activity coefficient is 1 or higher, and Not met otherwise?

| COMPOUND | ASSIGNED CLASS |
| --- | --- |
| CCCCCCCC [octane] + Cn1cc[n+](COCCCOC[n+]2ccn(C)c2)c1.O=S(=O)([N-]S(=O)(=O)C(F)(F)F)C(F)(F)F.O=S(=O)([N-]S(=O)(=O)C(F)(F)F)C(F)(F)F | Met |
| c1ccccc1 [benzene] + CCCCCCCCn1cc[n+](COCCC)c1C.N#C[N-]C#N | Met |
| Cc1cccc(C)c1 [1,3-dimethylbenzene] + CCCOC[n+]1ccn(Cc2ccccc2)c1.N#C[N-]C#N | Met |
| c1ccccc1 [benzene] + CCCCCCCCn1cc[n+](COCCC)c1C.O=S(=O)([N-]S(=O)(=O)C(F)(F)F)C(F)(F)F | Not met |
| Cc1cccc(C)c1 [1,3-dimethylbenzene] + CCCCCCCCn1cc[n+](COCCCOC[n+]2ccn(CCCCCCCC)c2C)c1C.N#C[N-]C#N.N#C[N-]C#N | Met |
| CCC(=O)CC [pentan-3-one] + N#C[N-]C#N.N#C[N-]C#N.c1ccc(Cn2cc[n+](COCCCOC[n+]3ccn(Cc4ccccc4)c3)c2)cc1 | Met |
| C1COCCO1 [1,4-dioxane] + CCCCCCCCn1cc[n+](COCCC)c1C.O=S(=O)([N-]S(=O)(=O)C(F)(F)F)C(F)(F)F | Not met |
| CC(C)O [propan-2-ol] + CCCOC[n+]1ccc(N(C)C)cc1.O=S(=O)([N-]S(=O)(=O)C(F)(F)F)C(F)(F)F | Met |
| ClCCl [dichloromethane] + CCCOC[n+]1ccn(C)c1.N#C[N-]C#N | Not met |
| Cc1ccccc1 [toluene] + CCCOC[n+]1ccn(Cc2ccccc2)c1.O=S(=O)([N-]S(=O)(=O)C(F)(F)F)C(F)(F)F | Not met |
| Cc1ccc(C)cc1 [1,4-dimethylbenzene] + CCCOC[n+]1ccn(Cc2ccccc2)c1.O=S(=O)([N-]S(=O)(=O)C(F)(F)F)C(F)(F)F | Met |
| CC(C)CO [2-methyl-1-propanol] + Cn1cc[n+](COCCCOC[n+]2ccn(C)c2)c1.O=S(=O)([N-]S(=O)(=O)C(F)(F)F)C(F)(F)F.O=S(=O)([N-]S(=O)(=O)C(F)(F)F)C(F)(F)F | Met |
| C#CCCCC [1-hexyne] + CCCOC[n+]1ccc(N(C)C)cc1.O=S(=O)([N-]S(=O)(=O)C(F)(F)F)C(F)(F)F | Met |
